- System: PAK2
- details: concentration: 1 μM, replicates: in singlicate; n = 1;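 also: KINOMEscan kinase panel screen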
endpoint: %Inh (%)
Numbers only, in %.

Worked examples follow.
{"given smiles": "COc1nccc(-c2c(-c3ccc(F)cc3)ncn2CCCN2CCOCC2)n1", "%Inh, %": 0}
{"given smiles": "Cl.Cl.Cl.N#Cc1ccc(CCNc2nccc(-c3cccc(CN4CCNCC4)c3)n2)cc1", "%Inh, %": 21}
{"given smiles": "Cc1ccccc1-c1cc(-c2c[nH]nc2-c2ccccn2)ccn1", "%Inh, %": 5}

// for each compound in input: emit %Inh
1. Fc1ccc(-c2nc[nH]c2-c2ccncc2)cc1
2. Cc1ccc(NC(=O)c2ccc(Cl)cc2)cc1-c1ccc(C(=O)Nc2ccncc2)cc1

1: 25; 2: 0

----------
- System: LYN
- details: concentration: 1 μM, replicates: in singlicate; n = 1
endpoint: %Inh (%)
Give bare numbers, in %.

{"compound": "CSc1ccc(-c2nc3n(c2-c2ccncc2)CCC3)cc1", "%Inh, %": 8}
{"compound": "COc1cccc(NC(=O)Nc2ccc(C)c(-c3ccc(C(=O)Nc4ccncc4)cc3)c2)c1", "%Inh, %": 97.9}
{"compound": "CS(=O)(=O)CCNCc1nc(-c2ccc3ncnc(Nc4ccc5c(cnn5Cc5ccccc5)c4)c3c2)cs1.Cl.Cl", "%Inh, %": 0}
{"compound": "Cc1ccc(NC(=O)Nc2ccc(Cl)c(C(F)(F)F)c2)cc1-c1ccc(C(=O)Nc2ccncc2)cc1", "%Inh, %": 42}
{"compound": "CNc1nc(-c2ccc3c(N)n[nH]c3c2)cc(N2C[C@@H](C(=O)Nc3ccccc3)CC[C@H]2C)n1", "%Inh, %": 0}
{"compound": "Cc1ccc(-c2nc(Nc3ccncc3)c3ccccc3n2)s1", "%Inh, %": 0}
{"compound": "FC(F)(F)c1ccccc1-c1cc(-c2c[nH]nc2-c2ccccn2)ccn1", "%Inh, %": 0}
{"compound": "Fc1ccc(-c2nc3n(c2-c2ccncc2)CCS3)cc1", "%Inh, %": 0}
{"compound": "CC(C)c1ccc(O)cc1Nc1ccnc2ccc(C(F)(F)F)cc12", "%Inh, %": 0}
{"compound": "COc1cccc(CNC(=O)NC2CCN(c3ccnc(Nc4ccc(F)cc4)n3)C2)c1 (centres unmarked)", "%Inh, %": 0}

// for each compound in input: emit %Inh
1. Cc1ccc(NC(=O)c2ccc(Cl)cc2)cc1-c1ccc(C(=O)Nc2ccncc2)cc1
2. CS(=O)(=O)Cc1ccc(Nc2nccc(-c3c(-c4cccc(NC(=O)C5CCCCC5)c4)nn4ncccc34)n2)cc1

30
16

// for each compound in input: emit %Inh
1. Cc1ccc(NC(=O)Nc2ccccc2F)cc1-c1ccc(C(=O)Nc2ccncc2)cc1
2. CNC(=O)c1ccc(C)c(-n2c(C)cc(OCc3ccc(F)cc3F)c(Br)c2=O)c1
3. COC(=O)C(NC(=O)NC1CCN(c2ccnc(Nc3ccc(F)cc3)n2)C1)c1ccccc1 (centres unmarked)
4. O=C(Nc1n[nH]c2nc(-c3cccs3)c(Br)cc12)C1CCCC1
5. CN1c2ccc(-c3ccc(C(N)=O)cc3)cc2-c2[nH]ncc2S1(=O)=O
6. COc1ccc(Nc2nccc(-c3ccc(NC(=O)c4cc5cc(F)ccc5[nH]4)cc3)n2)cc1

1. 47
2. 1
3. 7
4. 0
5. 0
6. 0

// for each compound in input: emit %Inh
1. Cc1cccc2c(-c3ccncn3)c(-c3ccc(F)cc3)nn12
2. COc1ccc(CSc2nnc(-c3ccc4nccn4c3)o2)cc1C(F)(F)F
3. COc1ccc(CSc2nnc(-c3ccc4ncsc4c3)o2)cc1C(F)(F)F
4. Cn1cncc1C(=O)NC1CCN(c2ccnc(Nc3ccc(F)cc3)n2)C1 (centres unmarked)
5. Fc1ccc(-c2nc[nH]c2-c2ccncc2)cc1

[0, 7, 0, 0, 0]

// for each compound in input: emit %Inh
1. Fc1ccc(-c2nn3cccc(F)c3c2-c2ccncc2)cc1
2. O=C(Nc1n[nH]c2nc(-c3ccco3)c(Br)cc12)C1CCN(Cc2ccccc2)C1.O=C(O)[C@H](O)[C@@H](O)C(=O)O (centres unmarked)

1: 6; 2: 2

----------
- Test system: CSNK1A1
- details: concentration: 1 μM, replicates: in singlicate; n = 1
Record form. Attribute: %Inh. Fill in for each entry.
Give bare numbers, in %.

Worked examples follow.
{"compound": "COc1cccc(CNC(=O)NC2CCN(c3ccnc(Nc4ccc(F)cc4)n3)C2)c1 (stereo not drawn) [GSK1379723]", "measured on": "CSNK1A1", "%Inh, %": 19}
{"compound": "CNC(=O)c1ccc(C)c(-n2c(C)cc(OCc3ccc(F)cc3F)c(Br)c2=O)c1", "measured on": "CSNK1A1", "%Inh, %": 4}
{"compound": "Cc1cnc(N)c(/C=C/c2cncc(C(=O)NCCc3ccc(Cl)cc3Cl)c2)c1.Cl [GSK190937]", "measured on": "CSNK1A1", "%Inh, %": 0}
{"compound": "Cc1ccc(NC(=O)Nc2ccc(Cl)c(C(F)(F)F)c2)cc1-c1ccc(C(=O)Nc2ccncc2)cc1 [GSK1398470]", "measured on": "CSNK1A1", "%Inh, %": 22}
{"compound": "COc1ccc(-c2coc3ccc(-c4nnc(C)o4)cc23)cc1", "measured on": "CSNK1A1", "%Inh, %": 0}

// for each compound in input: emit %Inh
1. Cc1c(Cn2c3ccccc3n3c(=O)cc(N4CCOCC4)nc23)cccc1C(F)(F)F [GSK2306394]
2. Nc1nccc(-c2c(-c3ccc(F)cc3)ncn2C2CCN(Cc3ccccc3)CC2)n1 [SB-219980]
3. CNc1nc(-c2ccc3c(N)n[nH]c3c2)cc(N2C[C@@H](C(=O)NC3CCCCC3)OC[C@H]2C)n1 [GSK2375584]

[19, 95.1, 66]

// for each compound in input: emit %Inh
1. CCn1c(-c2c(N)noc2C)nc2cnccc21 [SB-737856]
2. CC(C)c1ccc(O)cc1Nc1ccnc2ccc(C(F)(F)F)cc12 [GW482059]
3. Cc1c(Cn2c(C)c(C)n3c(=O)cc(N4CCOCC4)nc23)cccc1C(F)(F)F [GSK2328680]
4. CS(=O)(=O)Cc1ccc(Nc2nccc(-c3c(-c4cccc(NC(=O)C5CCCCC5)c4)nn4ncccc34)n2)cc1 [GSK350559]

0
0
0
7

// for each compound in input: emit %Inh
1. O=C(Nc1n[nH]c2nc(-c3cccs3)c(Br)cc12)C1CC1 [SB-735297]
2. CNc1nc(-c2ccc3c(N)n[nH]c3c2)cc(N2C[C@@H](C(=O)Nc3ccccc3)CC[C@H]2C)n1 [GSK2298859]
3. Cc1ccccc1-c1cc(-c2c[nH]nc2-c2ccccn2)ccn1 [GW680061]
4. Cn1cnc2c(N)ncnc21 [SKF-97623]
5. COc1nccc(-c2c(-c3ccc(F)cc3)ncn2CCCN2CCOCC2)n1 [SB-282852]

[0, 0, 12, 1, 44]

Looking for the measured %Inh of CNc1cc(-c2ccc3c(N)n[nH]c3c2)nc(N)n1 [GSK2224810] , can you help? 8

----------
- Tested on: SRMS
- details: concentration: 1 μM, replicates: in singlicate; n = 1
endpoint: %Inh (%)
Numbers only, in %.

Worked examples follow.
{"compound": "Fc1ccc(-c2nc3n(c2-c2ccncc2)CCS3)cc1", "recorded measurement": 0}
{"compound": "O=C(Nc1n[nH]c2cc(-c3ccsc3)ccc12)C1CC1", "recorded measurement": 13}
{"compound": "CC[C@@H]1CO[C@H](C(=O)Nc2ccccc2)CN1c1cc(-c2ccc3c(N)n[nH]c3c2)nc(NC)n1", "recorded measurement": 0}

// for each compound in input: emit %Inh
1. CCn1c(-c2ccccc2)nc2cnccc21
2. COc1ccc(-c2coc3ccc(-c4nnc(C)o4)cc23)cc1
3. Cc1cnc(N)c(/C=C/c2cncc(C(=O)NCCc3ccc(Cl)cc3Cl)c2)c1.Cl
4. COC(=O)C(Cc1ccccc1)NC(=O)NC1CCN(c2ccnc(Nc3ccc(F)cc3)n2)C1 (stereo not drawn)
5. Cc1ccccc1Cn1ccn2c(=O)cc(N3CCOCC3)nc12

[0, 0, 24, 5, 0]

Looking for the measured %Inh of CNCc1ccc2nc(NC(=O)c3ccc(C(C)(C)C)cc3)cn2c1 , can you help? 0

----------
- System: IRAK4
- details: concentration: 1 μM, replicates: in singlicate; n = 1
endpoint: %Inh (%)
One number for each entry, in %.

Worked examples follow.
{"compound": "CCCCc1nn2ncccc2c1-c1ccnc(NC2CC2)n1", "measured on": "IRAK4", "units label": "%", "%Inh": 12}
{"compound": "Fc1ccc(-c2nc[nH]c2-c2ccncc2)cc1", "measured on": "IRAK4", "units label": "%", "%Inh": 0}
{"compound": "Cc1ccc(NC(=O)Nc2ccccc2F)cc1-c1ccc(C(=O)Nc2ccncc2)cc1", "measured on": "IRAK4", "units label": "%", "%Inh": 1}
{"compound": "COC(=O)C(NC(=O)NC1CCN(c2ccnc(Nc3ccc(F)cc3)n2)C1)c1ccccc1 (stereo not drawn)", "measured on": "IRAK4", "units label": "%", "%Inh": 0}
{"compound": "Cc1c(Cn2c3ccccc3n3c(=O)cc(N4CCOCC4)nc23)cccc1C(F)(F)F", "measured on": "IRAK4", "units label": "%", "%Inh": 11}

// for each compound in input: emit %Inh
1. COc1ccc(Nc2nccc(NCCNC(=O)Nc3cc(C)ccc3C)n2)cc1
2. O=C(Nc1n[nH]c2nc(-c3ccco3)c(Br)cc12)C1CCN(Cc2ccccc2)C1.O=C(O)[C@H](O)[C@@H](O)C(=O)O (stereo not drawn)
3. CN1c2ccc(-c3ccc(C(N)=O)cc3)cc2-c2[nH]ncc2S1(=O)=O
4. Cc1ccc(-c2nc(Nc3ccncc3)c3ccccc3n2)s1

3
0
0
2
